Below is a list of entries, each paired with its recorded CC50 value.
tested on: HEL; experiment: Cytotoxicity against human HEL cells assessed as cell growth inhibition by cell counting method; assay type: cell-based

Below: 2 compounds and their reported CC50.
CC(C)OC(=O)[C@H](C)NP(=O)(OCC(CO)OCn1cnc2c(=O)[nH]c(N)nc21)Oc1cccc2ccccc12 (stereo partly drawn); > 50 µM
Nc1nc2c(ncn2CCC(CO)CO)c(=O)[nH]1 [PENCICLOVIR]; > 100 µM

Could you now consider this next compound?
Tell me CC50 reported for CC(C)OC(=O)[C@H](C)NP(=O)(OCC(COP(=O)(N[C@@H](C)C(=O)OC(C)C)Oc1cccc2ccccc12)OCn1cnc2c(=O)[nH]c(N)nc21)Oc1cccc2ccccc12 (stereo partly drawn) > 50 µM

* * *

system: CCRF-CEM; test: Cytostatic activity human CEM cells assessed as reduction in cell viability after 72 hrs by cell counting method; assay type: cell-based; settings: ccrf-cem, 72 h
endpoint: CC50

See these solved cases before continuing.
C[C@H](NP(=O)(OCC(CO)CCn1cnc2c(=O)[nH]c(N)nc21)Oc1ccccc1)C(=O)OCc1ccccc1 (stereo partly drawn); > 250 µM
CC(C)(NP(=O)(OCC(COP(=O)(NC(C)(C)C(=O)OCc1ccccc1)Oc1cccc2ccccc12)OCn1cnc2c(=O)[nH]c(N)nc21)Oc1cccc2ccccc12)C(=O)OCc1ccccc1 (stereo not drawn); > 20 µM

In the following, a different compound is considered.
Return value of CC50 for input Nc1nc(O)c2ncn(CSC(CO)CO)c2n1 , no commentary. > 500 µM
